Reported pKi values, Cannabinoid receptor 2 (Mus musculus, UniProt P47936).
Answers are plain numbers, as −log10 of the molar value.

CCCCCCC(C)(C)c1cc(O)c2c(c1)OC(C)(C)[C@@H]1CCC(=O)OC[C@@H]21 | 6.10

Turning to the following molecule.
pKi reading for CCCCCc1cc(O)c2c(c1)OC(C)(C)[C@@H]1CCC(C)=C[C@@H]21 [DRONABINOL] : 7.40

* * *

# system.tested: Cannabinoid receptor 2 (Homo sapiens, UniProt P34972)
# Sequence (P34972 whole entry): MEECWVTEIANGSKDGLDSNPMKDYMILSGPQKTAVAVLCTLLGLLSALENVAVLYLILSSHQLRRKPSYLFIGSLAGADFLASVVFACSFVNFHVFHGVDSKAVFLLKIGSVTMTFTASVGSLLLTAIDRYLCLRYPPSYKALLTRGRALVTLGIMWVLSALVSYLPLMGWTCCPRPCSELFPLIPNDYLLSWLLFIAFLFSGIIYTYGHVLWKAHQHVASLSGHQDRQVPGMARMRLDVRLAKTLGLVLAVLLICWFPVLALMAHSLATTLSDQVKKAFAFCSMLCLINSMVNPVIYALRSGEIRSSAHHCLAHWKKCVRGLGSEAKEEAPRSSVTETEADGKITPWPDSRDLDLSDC
assay.readout: Ki (nM)
Numbers only, in nM.

CCCCCCC(C)(C)c1cc(O)c2c(c1)OC(C)(C)[C@@H]1CCC(=O)OC[C@@H]21 | 52

Turning to the following compound.
Entry CCCCCCC(C)(C)c1cc(O)c2c(c1)OC(C)(C)[C@@H]1CCOC(=O)C[C@@H]21 under Cannabinoid receptor 2 (Homo sapiens, UniProt P34972) had Ki of 94

* * *

# assay.overview: Half life in mouse plasma
# Assay type: ADME, cell-free
assay.readout: half-life (min)
Give bare numbers, in min.

Record CCCCCCC(C)(C)c1cc(O)c2c(c1)OC(C)(C)[C@H](CCC(=O)O)[C@H]2CO . Reported half-life: 15.1

Value source: ChEMBL document CHEMBL3259710
